Cited source: PubChem BioAssay (NCI)

test: NCI Yeast Anticancer Drug Screen. Data for the bub3 strain (AID 167); details: S. cerevisiae bub3 mutant strain, at 50.0 µM, active compounds read high
Compounds without any hit were thinned out: in the full panel of roughly 79,000, 15% have a hit.
Below, each entry is listed with its recorded growth inhibition.
Supply the numeric figure in %, leaving out any unit text.

> print(dat)
                                   compound  experimental.value
1  CC(=O)OCC1OC(n2cnc3c(=S)nc[nH]c32)C(OC(C)=O)C1N(C)C(C)=S (stereo unspecified)                1.25
2           O=c1[nH]nc(Sc2ccccc2)c(=O)[nH]1               -11.4
3  O=C1CN(c2ccc(Cl)cc2)C(=O)CN1CCN1CC(=O)N(c2ccc(Cl)cc2)CC1=O               -39.6
4            O=C(O)c1ccc([N+](=O)[O-])cc1Cl               -3.25
5                         Nc1nc(N)c2nonc2n1               -2.85

Now examine the next entry.
Need growth inhibition of NNC(=O)C(=O)N/N=C1\CCC(=O)CC1C(=O)CCC(=O)Nc1ccc(Cl)cc1 (stereo unspecified) , thanks. -0.8

---

assay: NCI Yeast Anticancer Drug Screen. Data for the mlh1 rad18 strain (AID 175); settings: S. cerevisiae mlh1 rad18 strain growth inhibition; at 50.0 µM; active compounds read high
This is part of a sample that, as a whole, favours compounds with a hit. Of some 79,000 tested, about 15% had one in any assay.
Below, each entry is listed with its recorded growth inhibition.
Supply the numeric figure in %, leaving out any unit text.

Field: example entries. Status: answers known.
> print(dat)
                                   compound           property  experimental.value
1                                N#CCC(=O)O  growth inhibition                  -9
2  COC(=O)c1nc(=S)[nH]c(C(=O)OC)c1C(=O)c1ccc(C)cc1  growth inhibition                21.4
3  CC#CC(O)(C(=O)OCCCN(C)C)C1CCCCC1 (stereo not given)  growth inhibition                9.25

Need growth inhibition of O=C(CNC(=O)OCc1ccccc1)NCCNCCNC(=O)CNC(=O)OCc1ccccc1 , thanks. -0.4

Need growth inhibition of Cc1ccc(S(=O)(=O)N(C)c2cc(Cl)c(C(=O)O)cc2Cl)cc1 , thanks. 15.1

Need growth inhibition of O=C1NC(=O)C2CCC12 (stereo not given) , thanks. 18.2

Need growth inhibition of COC(=O)OC(C#N)c1cccc([N+](=O)[O-])c1 (stereo not given) , thanks. 9

Need growth inhibition of CCCCCCCCCCCCN1CCCN(CCCCCCCCCCCC)CC1 , thanks. 99.2

Need growth inhibition of CC(/C=N/N(C)C1=NCCCN1)=N/N(C)C1=NCCCN1 , thanks. 11.2

Need growth inhibition of COc1cc2c(cc1OC)C(Cc1cc(Br)c(OC)c(OC)c1)=[N+](C)CC2 , thanks. 11.2

Need growth inhibition of COC(=O)O[C@H]1CC[C@@]2(C)C(=CC[C@H]3[C@@H]4CC[C@H]([C@H](C)CCCC(C)C)[C@@]4(C)CC[C@@H]32)C1 , thanks. -5.3

Need growth inhibition of Clc1c(Cl)c2ccccc2c2ccccc12 , thanks. 4.85

Need growth inhibition of CC(C)(C)CC(C)(C)c1c(O)cc(O)cc1Cl , thanks. 99.2

Need growth inhibition of CSc1nc(=O)n(CCC#N)nc1SC , thanks. 12.2

Need growth inhibition of Clc1ncnc2c1cnn2-c1ccccc1 , thanks. -6.1
